Assay: Rat pharmacokinetics, oral or intravenous cassette dosing
Assay type: in vivo, rats (strain Wistar RjHAN)
Conditions: Wistar RjHAN, rat, plasma; male rats, iv 1 mg/kg
value-kind: AUC(0-t)

Q. Look up AUC(0-t) for this compound: [2H]C([2H])(CC(C)(C)O)n1ncc(-c2onc(-c3c(F)cccc3Cl)c2-c2ncccn2)c1C(F)(F)F
A. 3720 ng·h/mL

* * *

Assay: Mouse pharmacokinetics, oral or intravenous cassette dosing
Assay type: in vivo, mice (C57BL/6J)
Conditions: C57BL/6J, whole blood, female mice, 5 mg/kg oral, cassette, read-out: AUC0-24 h
value-kind: AUC(0-t) (ng·h/mL)
Just the number in ng·h/mL, nothing appended.

Q. Look up AUC(0-t) for this molecule: [2H]C([2H])(CC(C)(C)O)n1ncc(-c2onc(-c3c(F)cccc3Cl)c2-c2ncccn2)c1C(F)(F)F
A. 771
